pIC50 values, listed per item
Biological target: Human αvβ3 (Homo sapiens, UniProt P05106+P06756)
Construct: purchased Chemicon International Inc., Temecula, Calif
Sequence (P06756 31-889 limits assumed): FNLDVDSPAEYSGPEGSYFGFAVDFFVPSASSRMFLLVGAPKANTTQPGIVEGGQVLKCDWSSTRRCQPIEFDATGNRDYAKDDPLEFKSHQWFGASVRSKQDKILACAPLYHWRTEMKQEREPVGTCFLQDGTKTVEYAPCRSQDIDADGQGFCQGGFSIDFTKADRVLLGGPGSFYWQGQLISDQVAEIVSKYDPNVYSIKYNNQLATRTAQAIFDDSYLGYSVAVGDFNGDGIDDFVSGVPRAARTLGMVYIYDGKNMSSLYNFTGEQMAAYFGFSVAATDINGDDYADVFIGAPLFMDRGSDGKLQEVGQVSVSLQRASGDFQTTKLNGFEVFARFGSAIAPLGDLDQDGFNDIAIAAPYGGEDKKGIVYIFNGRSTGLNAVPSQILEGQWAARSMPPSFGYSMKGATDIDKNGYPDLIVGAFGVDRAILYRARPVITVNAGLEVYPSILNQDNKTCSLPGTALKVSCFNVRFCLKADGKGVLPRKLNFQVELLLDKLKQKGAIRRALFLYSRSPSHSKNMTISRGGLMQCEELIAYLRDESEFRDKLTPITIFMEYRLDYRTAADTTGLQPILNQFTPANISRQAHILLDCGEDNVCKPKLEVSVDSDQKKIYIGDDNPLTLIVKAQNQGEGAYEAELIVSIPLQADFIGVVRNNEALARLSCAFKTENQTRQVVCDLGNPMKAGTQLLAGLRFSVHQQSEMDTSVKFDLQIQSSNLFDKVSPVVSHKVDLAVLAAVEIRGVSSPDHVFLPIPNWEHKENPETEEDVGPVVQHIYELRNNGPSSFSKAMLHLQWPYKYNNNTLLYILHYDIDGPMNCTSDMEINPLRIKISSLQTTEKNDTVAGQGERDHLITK
Sequence (P06756 891-1048 partner limits assumed): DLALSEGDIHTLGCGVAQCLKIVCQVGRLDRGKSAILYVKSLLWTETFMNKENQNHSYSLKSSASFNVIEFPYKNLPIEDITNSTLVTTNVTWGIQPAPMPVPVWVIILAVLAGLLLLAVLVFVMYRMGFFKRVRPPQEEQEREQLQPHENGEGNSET
Sequence (P05106 27-788): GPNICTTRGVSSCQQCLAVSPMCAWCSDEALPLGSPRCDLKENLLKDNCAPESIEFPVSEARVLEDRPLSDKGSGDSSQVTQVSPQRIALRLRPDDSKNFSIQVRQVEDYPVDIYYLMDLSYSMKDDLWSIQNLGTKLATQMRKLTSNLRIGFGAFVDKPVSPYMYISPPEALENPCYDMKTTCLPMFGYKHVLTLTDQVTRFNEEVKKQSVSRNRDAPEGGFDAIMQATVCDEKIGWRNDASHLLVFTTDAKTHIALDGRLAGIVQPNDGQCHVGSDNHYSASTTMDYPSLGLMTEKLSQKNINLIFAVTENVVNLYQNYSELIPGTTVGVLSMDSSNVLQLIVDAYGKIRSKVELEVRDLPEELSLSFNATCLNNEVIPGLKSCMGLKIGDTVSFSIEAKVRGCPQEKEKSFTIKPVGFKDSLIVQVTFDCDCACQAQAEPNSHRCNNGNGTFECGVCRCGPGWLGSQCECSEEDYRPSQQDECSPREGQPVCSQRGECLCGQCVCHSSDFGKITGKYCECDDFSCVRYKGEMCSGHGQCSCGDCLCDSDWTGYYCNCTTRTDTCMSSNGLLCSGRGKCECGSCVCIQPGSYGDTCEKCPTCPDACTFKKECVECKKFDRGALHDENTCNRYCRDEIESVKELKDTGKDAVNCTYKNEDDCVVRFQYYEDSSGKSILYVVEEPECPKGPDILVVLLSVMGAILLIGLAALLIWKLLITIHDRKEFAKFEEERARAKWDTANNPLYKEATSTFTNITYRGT
Assay: In vitro solid phase purified αvβ3 binding assay (vitronectin/αvβ3)
Conditions: isolated human αvβ3, 5 nM vitronectin; read-out: αvβ3 Binding IC50
pIC50: −log10 of the molar value.

# count of solved cases: 3
{"columns": ["Smiles String", "pIC50"],
 "data": [
  ["O=C(O)[C@H](Cc1nc2ccc(/C=C/CNC3=NCCN3)cc2c(=O)[nH]1)NS(=O)(=O)c1c(Cl)cc(Cl)cc1Cl", "< 7.30"],
  ["COc1cccc([C@@H](CC(=O)O)c2nc3ccc(/C=C/CNc4ccccn4)cc3c(=O)[nH]2)c1", "< 4.30"],
  ["CN(C)c1cccc2c(S(=O)(=O)N[C@@H](Cc3nc4ccc(/C=C/CNC5=NCCN5)cc4c(=O)[nH]3)C(=O)O)cccc12", "< 6.30"]
]}

Below: the item to evaluate.
Input line: Lab note: need pIC50 for O=C(O)CCc1nc2ccc(/C=C/CNc3ccccn3)cc2c(=O)n1Cc1ccccc1 on Human αvβ3 (Homo sapiens, UniProt P05106+P06756), anyone have it?
Output line: < 5.30
